# PROCEDURE SUMMARY: Fluorescence spectra of thiophene derivatives in solvents of different polarity
# Assay type: physicochemical
# CONDITION DETAILS: 1,4-Dioxane, ET(30) 36.0
RECORDED ENDPOINT: Maximum fluorescence emission wavelength (nm)
Answers are plain numbers, in nm.

| QUERY SMILES | Maximum fluorescence emission wavelength [nm] |
| --- | --- |
| CCCCCCN(CCCCCC)c1ccc(-c2ccc(-c3ncccn3)s2)cc1 | 472 |

Please look at the items below and tell me Maximum fluorescence emission wavelength for each one, in order.
1. CCCCCCN(CCCCCC)c1ccc(-c2ccc(-c3ccccn3)s2)cc1
2. CCCCCCN(CCCCCC)c1ccc(-c2ccc(-c3ccncc3)s2)cc1
3. CCCCCCN(CCCCCC)c1ccc(-c2ccc(-c3cc[n+](C)cc3)s2)cc1.[I-]

1: 459; 2: 467; 3: 568

These measurements were taken from patent US20120015399A1.
